Kindly state koff for each of the entries shown.
System tested: T1, cynomolgus monkey EL-C2 tag (cynomolgus monkey, UniProt Q9Y5X9 21-500 (human entry), limits assumed)
T1 construct: used as heparin extract of transfected HEK293F cells; also called cynomolgus EL
T1 chain: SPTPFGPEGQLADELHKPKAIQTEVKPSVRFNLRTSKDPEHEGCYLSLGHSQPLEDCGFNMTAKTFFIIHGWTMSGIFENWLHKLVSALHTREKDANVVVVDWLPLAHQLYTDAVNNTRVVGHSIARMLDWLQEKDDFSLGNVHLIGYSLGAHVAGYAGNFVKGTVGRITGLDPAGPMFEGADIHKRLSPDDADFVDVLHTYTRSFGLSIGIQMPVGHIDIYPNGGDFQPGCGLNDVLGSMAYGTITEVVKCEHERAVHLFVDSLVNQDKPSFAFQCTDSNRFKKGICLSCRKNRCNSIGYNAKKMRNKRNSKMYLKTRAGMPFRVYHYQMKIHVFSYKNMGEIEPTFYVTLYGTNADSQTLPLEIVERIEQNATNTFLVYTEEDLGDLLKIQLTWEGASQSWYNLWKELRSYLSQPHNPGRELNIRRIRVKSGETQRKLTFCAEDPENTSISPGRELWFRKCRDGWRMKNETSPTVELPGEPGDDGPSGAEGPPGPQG
Procedure details: Biacore SPR; EL heparin extract captured by anti-C2-tag antibody on CM5, antibody as analyte, bivalent fit
Reply with a number, then the unit it belongs to.

Task item: Data request, read-out koff, for 47B2 antibody (antibody, IgG2a, V domains shown) VH: QVALKESGPGILQPSQTLSLTCSFSGFSLSTSGMGVGWIRQPSGKGLEWLAHIWWHGNKYYSTGLKSRLTISKDTSNNQVFLKIASVDTADTATYYCARISAGYPLDYWGQGTSVTVSS VL: DIQMTQSPSSLSASLGGKVTITCKASQDINKYIVWYQHKPGKGPRLLIHYTSTLQPGFPSRFSGSGSGRDYSLSITNLEPEDIATYYCLQYDNLLWTFGGGTKLEIK
Reply: 0.00033 s⁻¹

Task item: Please answer likewise for 12B10 antibody (antibody, IgG2a, V domains shown) VH: QVTLKESGPGILKPSQTLSLTCSFSGFSLSTSGMGVGWIRQPSGKGLEWLAHIWWNDEKYYNPSLKSQLTISKDTSRNQVFLKITSVDTADTATYYCARSYDGSPFPSWGQGTLVTVSA VL: DIQMTQSPSSLSASLGGKVTITCKASQDINKYIAWFQHKPGKGPRLLMAYPFTLQPGIPSRFSGNGSGRDYSFSISNLEPEDIATYYCLQYDNLLWTFGGGTRLEIK
Reply: 0.00018 s⁻¹

Task item: Please answer likewise for 8F5 antibody (antibody, IgG2a, V domains shown) VH: QVTLKESGPGILQPSQTLSLTCSFSGFSLSTSNMGVGWIRQPSGKGLEWLAHIWWNDYKYYNTALKSRLTISKDTSNNQVFLKIASLDTADTATYYCARIGGGTPLDYWGQGTSLTVSS VL: DIQMAQSPSSLSASLGGKVTITCKASQDIHTYIAWYQHKPGKGPRLLMLYTSTLQPGIPSRFSGSGSGRDYSFSISNLEPEDIATYYCLQYDDLLWTFGGGTKLEIK
Reply: 0.00014 s⁻¹
